This section presents binders with their documented EC50 group, cGMP in GTM-3 cells values.
Target: T1, natriuretic peptide receptor-B (human)
T1 chain: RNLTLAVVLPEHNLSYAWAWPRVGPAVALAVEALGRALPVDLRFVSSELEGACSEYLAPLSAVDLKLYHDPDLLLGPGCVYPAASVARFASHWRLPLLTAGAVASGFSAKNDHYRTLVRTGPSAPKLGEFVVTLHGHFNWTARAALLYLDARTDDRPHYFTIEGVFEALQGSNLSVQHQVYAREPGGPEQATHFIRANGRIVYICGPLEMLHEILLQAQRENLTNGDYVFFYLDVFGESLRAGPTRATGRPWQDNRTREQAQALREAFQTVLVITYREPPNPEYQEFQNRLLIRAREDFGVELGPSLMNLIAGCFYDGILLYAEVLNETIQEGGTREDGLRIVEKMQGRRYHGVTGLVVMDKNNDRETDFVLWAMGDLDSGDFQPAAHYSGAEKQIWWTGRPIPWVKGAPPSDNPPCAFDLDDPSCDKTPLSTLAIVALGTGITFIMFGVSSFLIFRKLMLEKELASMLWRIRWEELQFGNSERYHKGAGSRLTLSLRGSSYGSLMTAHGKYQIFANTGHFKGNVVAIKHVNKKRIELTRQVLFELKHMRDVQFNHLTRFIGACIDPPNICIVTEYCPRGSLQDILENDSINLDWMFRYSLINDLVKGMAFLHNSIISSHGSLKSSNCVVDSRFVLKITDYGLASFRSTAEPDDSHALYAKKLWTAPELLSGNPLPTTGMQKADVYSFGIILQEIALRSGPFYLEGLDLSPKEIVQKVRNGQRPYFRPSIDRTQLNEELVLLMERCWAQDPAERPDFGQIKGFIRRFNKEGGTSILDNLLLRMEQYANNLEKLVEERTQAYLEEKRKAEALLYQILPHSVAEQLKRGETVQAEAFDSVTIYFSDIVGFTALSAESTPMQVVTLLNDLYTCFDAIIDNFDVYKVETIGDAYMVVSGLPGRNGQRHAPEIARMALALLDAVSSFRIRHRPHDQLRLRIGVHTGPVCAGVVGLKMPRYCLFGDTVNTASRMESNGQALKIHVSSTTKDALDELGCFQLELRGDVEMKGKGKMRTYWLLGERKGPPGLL
Experiment: cell-based or functional assay
Numbered stars: 1 amine (or outer) side, 2 acyl side, 3 side chain; on linkers, the order of the positions; unused ones are H or OH. Square brackets hold non-standard residues; d marks the D form. Ends that are not written are not given here. * marks the point of attachment. Sni = (S)-nipecotic acid, O=C([C@H]1CCCN([*:1])C1)[*:2]; Phe(4-Cl) = N[C@@H](Cc1ccc(Cl)cc1)C(=O)O; Hydrocinnamoyl = O=C(CCc1ccccc1)*; Hyp = O=C(O)[C@@H]1C[C@@H](O)CN1; NMeL = CN[C@@H](CC(C)C)C(=O)O; leu = not defined here; Occ = octanoic acid

Worked set:
binder	result
[Occ]A[Phe(4-Cl)]GLPLDRI-NH2 (not fully specified (residue 2); printed as Occ-ala-Pcf-Gly-Leu-Pro-Leu-Asp-Arg-Ile-NH2) [JAL-1002]	≤ 15 µM
XXFGLKLDRI (HELM PEPTIDE1{[CCCCCCCC(=O)[*:2]].[O=C(C1CCCN([*:1])C1)[*:2]].F.G.L.K.L.D.R.I.[am]}$$$$V2.0; SMILES CCCCCCCC(=O)N1CCCC(C(=O)N[C@@H](Cc2ccccc2)C(=O)NCC(=O)N[C@@H](CC(C)C)C(=O)N[C@@H](CCCCN)C(=O)N[C@@H](CC(C)C)C(=O)N[C@@H](CC(=O)O)C(=O)N[C@@H](CCCNC(=N)N)C(=O)N[C@H](C(N)=O)[C@@H](C)CC)C1) [JAL-0697]	≤ 5 µM

// below: EC50 group, cGMP in GTM-3 cells requested for another binder
Qu. Note down EC50 group, cGMP in GTM-3 cells recorded for [Hydrocinnamoyl][Sni]F[leu]L[Hyp][NMeL]DRI-NH2 (reading uncertain; also: printed as 1281-Sni-Phe-leu-Leu-Hyp-Nml-Asp-Arg-Ile-NH2) [JAL-1661]
Ans. ≤ 5 µM

Attribution: patent US9187525B2
